system: Plasmodium berghei; test: Screen against P. berghei liver stage (PbLuc), transformed with Luciferase, at 2uM; type: functional, HepG2; details: tested at 2 uM
The campaign covered roughly 68,000 compounds. About 2,700 (4%) showed an effect of 50% or more. Many of the other results were omitted from the sample, so strong results are more common in it than they were.
measured_property: INHIBITION (%)

>>> experimental_value("COc1coc(C(=O)Nc2nc(C)cs2)cc1=O")
-1.29
>>> experimental_value("Cc1occc1C(=O)N1CC[C@@H](N2CCOCC2)[C@@H]1Cc1ccccc1")
-23.67
>>> experimental_value("Cn1cc(CN2CCCC(CCc3ccc(F)cc3F)C2)cn1 (configuration not stated)")
69.71
>>> experimental_value("Cn1cc(CN2CCCC(CCc3ccccc3C(F)(F)F)C2)cn1 (configuration not stated)")
24.55
>>> experimental_value("CNc1ncc(CN2CCC(CCc3ccccc3)CC2)cn1")
49.87
>>> experimental_value("COCc1cccc(S(=O)(=O)Nc2ncc(C)s2)c1")
-2.19
>>> experimental_value("CC1CCN(C(=O)C(C)n2cc(Br)cn2)CC1 (configuration not stated)")
20.8
